- measurement.target: Histidine kinase 3 (Arabidopsis thaliana, UniProt Q9C5U1)
- Sequence (Q9C5U1 whole entry): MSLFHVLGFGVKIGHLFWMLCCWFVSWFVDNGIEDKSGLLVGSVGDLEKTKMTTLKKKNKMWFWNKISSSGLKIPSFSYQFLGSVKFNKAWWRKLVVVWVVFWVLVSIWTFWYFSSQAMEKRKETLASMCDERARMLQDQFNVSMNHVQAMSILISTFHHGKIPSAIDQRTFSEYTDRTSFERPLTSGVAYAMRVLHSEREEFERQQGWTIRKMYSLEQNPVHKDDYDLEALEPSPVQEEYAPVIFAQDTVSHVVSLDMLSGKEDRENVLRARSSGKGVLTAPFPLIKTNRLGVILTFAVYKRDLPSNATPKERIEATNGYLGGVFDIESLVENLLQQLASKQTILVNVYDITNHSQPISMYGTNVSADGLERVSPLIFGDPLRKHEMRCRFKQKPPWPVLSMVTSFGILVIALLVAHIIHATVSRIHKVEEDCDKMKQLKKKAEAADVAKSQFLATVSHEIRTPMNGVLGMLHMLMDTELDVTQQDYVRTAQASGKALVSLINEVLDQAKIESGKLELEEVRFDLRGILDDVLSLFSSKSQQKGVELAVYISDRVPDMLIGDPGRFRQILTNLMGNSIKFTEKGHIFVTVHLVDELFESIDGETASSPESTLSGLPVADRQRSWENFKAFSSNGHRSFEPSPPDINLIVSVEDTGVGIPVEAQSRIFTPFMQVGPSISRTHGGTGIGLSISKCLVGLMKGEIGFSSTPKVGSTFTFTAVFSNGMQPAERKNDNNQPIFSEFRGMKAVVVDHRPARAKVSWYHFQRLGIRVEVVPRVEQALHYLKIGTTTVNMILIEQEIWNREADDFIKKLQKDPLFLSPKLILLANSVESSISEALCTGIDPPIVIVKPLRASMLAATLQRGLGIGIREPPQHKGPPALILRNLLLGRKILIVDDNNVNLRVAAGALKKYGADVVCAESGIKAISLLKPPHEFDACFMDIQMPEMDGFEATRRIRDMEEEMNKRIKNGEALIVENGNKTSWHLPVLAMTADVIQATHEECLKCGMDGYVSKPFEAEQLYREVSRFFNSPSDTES
- assay.remarks: Activation of Arabidopsis thaliana AHK3 receptor expressed in Escherichia coli KMI001 by beta-galactosidase activity
metric: pEC50
Give bare numbers, as −log10 of the molar value.

Recorded pEC50, per entry:
smiles.repr | pEC50
C/C(=C\CNc1ncnc2[nH]cnc12)CO | 6.15
Oc1ccc(Nc2nc(Cl)nc3[nH]cnc23)cc1 | 4.78
O=C(Nc1ccccc1)Nc1cnns1 | 6.02

For every item in the list below, what is its measured pEC50?
1. Clc1cccc(Nc2nc(Cl)nc3[nH]cnc23)c1
2. COc1cccc(Nc2nc(F)nc3[nH]cnc23)c1
3. Fc1cccc(Nc2nc(Cl)nc3[nH]cnc23)c1

4.97
4.72
5.22

For every item in the list below, what is its measured pEC50?
1. COc1ccccc1Nc1nc(Cl)nc2[nH]cnc12
2. Oc1ccccc1Nc1nc(Cl)nc2nc[nH]c12
3. Clc1ccc(Nc2nc(Cl)nc3[nH]cnc23)cc1
4. COc1cccc(Nc2ncnc3[nH]cnc23)c1
5. Fc1ccc(Nc2nc(Cl)nc3[nH]cnc23)cc1

[4.48, 4.72, 4.82, 5.64, 4.30]

For every item in the list below, what is its measured pEC50?
1. Oc1cccc(Nc2nc(Cl)nc3[nH]cnc23)c1
2. COc1cccc(Nc2nc(Cl)nc3[nH]cnc23)c1

4.89
4.68

====

Provide the reported Activity of each item.
- System: Amaranthus
- assay.remarks: Cytokinin-like effect in Amaranthus cotyledons assessed as dark induction of betacyanin synthesis at 100 umol/L relative to 6-benzylaminopurine
- Type: functional
- conditions: at 100 µM
Give bare numbers, in %.

smiles.repr | Activity [%]
C/C(=C\CNc1ncnc2[nH]cnc12)CO | 129.6
Oc1ccc(Nc2nc(Cl)nc3[nH]cnc23)cc1 | 47.5
Fc1cccc(Nc2nc(Cl)nc3[nH]cnc23)c1 | 147
COc1ccccc1Nc1nc(Cl)nc2[nH]cnc12 | 63

Write down the reported Activity (system: Amaranthus) of COc1cccc(Nc2nc(Cl)nc3c2ncn3C)c1
69

====

Target chain: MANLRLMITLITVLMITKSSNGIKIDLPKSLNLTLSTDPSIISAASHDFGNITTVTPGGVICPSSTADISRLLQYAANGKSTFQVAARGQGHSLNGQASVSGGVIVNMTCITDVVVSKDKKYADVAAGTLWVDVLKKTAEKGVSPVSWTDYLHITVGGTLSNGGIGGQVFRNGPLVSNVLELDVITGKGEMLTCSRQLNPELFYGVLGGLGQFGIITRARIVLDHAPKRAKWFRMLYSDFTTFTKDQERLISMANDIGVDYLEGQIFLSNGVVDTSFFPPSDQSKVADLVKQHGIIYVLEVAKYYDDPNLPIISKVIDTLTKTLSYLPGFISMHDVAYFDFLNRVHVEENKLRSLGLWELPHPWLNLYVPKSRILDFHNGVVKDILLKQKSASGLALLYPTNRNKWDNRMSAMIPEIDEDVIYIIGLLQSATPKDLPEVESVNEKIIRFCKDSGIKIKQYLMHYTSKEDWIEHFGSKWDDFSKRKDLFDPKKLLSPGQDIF
pIC50: −log10 of the molar value.
metric: pIC50

Recorded pIC50, per entry:
smiles.repr | pIC50
Oc1ccc(Nc2nc(Cl)nc3[nH]cnc23)cc1 | < 4.00
COc1cccc(Nc2nc(SC)nc3[nH]cnc23)c1 | < 4.00

Input COc1ccccc1Nc1nc(Cl)nc2[nH]cnc12 , output reported pIC50.
< 4.00

// provenance: ChEMBL document CHEMBL1142465
